Target: cyclic nucleotide phosphodiesterase fraction III
Test: Procedure I: Cyclic Nucleotide Phosphodiesterase Assay
Format: biochemical
Conditions: concentration inhibiting 50% of cyclic nucleotide phosphodiesterase activity; cyclic AMP substrate, pH 7.4; read-out: Procedure I IC50
Item-by-item account of IC50
// units = µM; emit number, no label

Take a look at these entries with their results.
O=c1c2ccc(Cl)cc2nc2n1CS(=O)(=O)N2
150
CN(C(=O)CCCOc1ccc2nc3n(c(=O)c2c1)CS(=O)(=O)N3)C1CCCCC1
13
O=c1c2ccccc2nc2n1CS(=O)(=O)N2
150
COc1cc2nc3n(c(=O)c2cc1OC)CS(=O)(=O)N3
35

--- query ---
Looking for the measured IC50 of `O=c1c2cc(Cl)ccc2nc2n1CS(=O)(=O)N2` , can you help?
70
